conditions: in n-propanol, 288.15 K
Readout kind: solubility (mole fraction)
Number only, please.

Consider the molecule shown here: CN(C)/C=C/C(=O)c1cccnc1 What is its recorded solubility (mole fraction)?
0.0233

---

conditions: in DMF, 318.15 K
Readout kind: solubility (mole fraction)

Consider the compound shown here: CN(C)/C=C/C(=O)c1cccnc1 What is its recorded solubility (mole fraction)?
0.408

---

conditions: in methanol, 278.15 K
Readout kind: solubility (mole fraction)
Number only, please.

Consider the compound shown here: CN(C)/C=C/C(=O)c1cccnc1 What is its recorded solubility (mole fraction)?
0.0255

---

settings: in THF, 303.15 K
Readout kind: solubility (mole fraction)
Number only, please.

Consider the compound shown here: CN(C)/C=C/C(=O)c1cccnc1 What is its recorded solubility (mole fraction)?
0.0279

---

settings: in 1,4-dioxane, 288.15 K
Readout kind: solubility (mole fraction)
Number only, please.

Consider the molecule shown here: CN(C)/C=C/C(=O)c1cccnc1 What is its recorded solubility (mole fraction)?
0.0331

---

conditions: in n-propanol, 318.15 K
Readout kind: solubility (mole fraction)
Number only, please.

Consider the molecule shown here: CN(C)/C=C/C(=O)c1cccnc1 What is its recorded solubility (mole fraction)?
0.0465

---

conditions: in cyclohexane, 288.15 K
Readout kind: solubility (mole fraction)
Number only, please.

Consider the compound shown here: CN(C)/C=C/C(=O)c1cccnc1 What is its recorded solubility (mole fraction)?
0.00114

---

conditions: in n-propanol, 298.15 K
Readout kind: solubility (mole fraction)
Number only, please.

Consider the compound shown here: CN(C)/C=C/C(=O)c1cccnc1 What is its recorded solubility (mole fraction)?
0.0298

---

details: in THF, 278.15 K
Readout kind: solubility (mole fraction)
Number only, please.

Consider the compound shown here: CN(C)/C=C/C(=O)c1cccnc1 What is its recorded solubility (mole fraction)?
0.021

---

details: in acetone, 283.15 K
Readout kind: solubility (mole fraction)
Number only, please.

Consider the compound shown here: CN(C)/C=C/C(=O)c1cccnc1 What is its recorded solubility (mole fraction)?
0.00917

---

settings: in DMF, 308.15 K
Readout kind: solubility (mole fraction)
Number only, please.

Consider the compound shown here: CN(C)/C=C/C(=O)c1cccnc1 What is its recorded solubility (mole fraction)?
0.293

---

conditions: in cyclohexane, 293.15 K
Readout kind: solubility (mole fraction)
Number only, please.

Consider the molecule shown here: CN(C)/C=C/C(=O)c1cccnc1 What is its recorded solubility (mole fraction)?
0.00147

---

details: in acetone, 313.15 K
Readout kind: solubility (mole fraction)
Number only, please.

Consider the molecule shown here: CN(C)/C=C/C(=O)c1cccnc1 What is its recorded solubility (mole fraction)?
0.0149

---

conditions: in ethyl acetate, 303.15 K
Readout kind: solubility (mole fraction)
Number only, please.

Consider the molecule shown here: CN(C)/C=C/C(=O)c1cccnc1 What is its recorded solubility (mole fraction)?
0.02

---

conditions: in DMF, 303.15 K
Readout kind: solubility (mole fraction)
Number only, please.

Consider the compound shown here: CN(C)/C=C/C(=O)c1cccnc1 What is its recorded solubility (mole fraction)?
0.249

---

conditions: in ethyl acetate, 288.15 K
Readout kind: solubility (mole fraction)
Number only, please.

Consider the molecule shown here: CN(C)/C=C/C(=O)c1cccnc1 What is its recorded solubility (mole fraction)?
0.0152

---

settings: in cyclohexane, 283.15 K
Readout kind: solubility (mole fraction)
Number only, please.

Consider the compound shown here: CN(C)/C=C/C(=O)c1cccnc1 What is its recorded solubility (mole fraction)?
0.00098
